Assay: Therapeutic index, ratio of IC50 for human MCF10A cells to IC50 for human MCF7 cells
Assay type: cell-based
Settings: MCF10A cells and MCF7 cells, read-out: Ratio IC50

{"columns": ["compound", "selectivity ratio"],
 "data": [
  ["COC(CN(c1ccccc1CO)S(=O)(=O)c1ccccc1N)n1cc(F)c(=O)[nH]c1=O (racemic)", 34.5]
]}
